TARGET: R24M PTP1B (Homo sapiens, UniProt P18031, R24M)
Sequence (P18031 1-321 R24M): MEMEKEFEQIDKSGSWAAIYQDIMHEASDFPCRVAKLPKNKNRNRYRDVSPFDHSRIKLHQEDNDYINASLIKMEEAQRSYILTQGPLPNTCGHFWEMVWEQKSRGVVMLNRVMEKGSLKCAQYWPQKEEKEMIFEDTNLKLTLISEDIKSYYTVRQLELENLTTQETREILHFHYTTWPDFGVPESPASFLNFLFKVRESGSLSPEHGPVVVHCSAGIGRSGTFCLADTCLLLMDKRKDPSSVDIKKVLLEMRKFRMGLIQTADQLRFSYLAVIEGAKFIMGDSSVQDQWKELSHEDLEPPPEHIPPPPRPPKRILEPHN
PROTOCOL_SUMMARY: PTP assay, R24M PTP1B
Format: biochemical
CONDITION_DESCRIPTION: ratio of kcat/KM, WT over R24M PTP1B (fold reduction by the mutation)
Label key: Yes means WT/R24M under 2; No means WT/R24M of 2 or more.

SUBSTANCE	GROUP_LABEL
AApYDDIDE	No
AApYADDAA	No
AApYIRKRA	Yes
DPRGIpYDQVAG	No
AApYDDAAA	No
EEDNAWpYAA	Yes
AApYAAADD	No

Here's the next entry for you.
is_below(WT/R24M, 2) for Ac-AWGPLpYDEVQM-NH2 ?
No

Where do the numbers come from? From paper PMC3954597.
